# SYSTEM: IRAK4 (Homo sapiens, UniProt Q9NWZ3)
# Construct: purchased CARNA Bioscience 09-145
# PROTOCOL_DETAILS: IRAK-4 activity inhibition assay (Caliper, Peptide 8, 37 μM ATP)
# Format: biochemical
# CONDITION_SET: 3.5 nM IRAK4, 1.5 μM Peptide 8, 37 μM ATP, 28° C. 40 minutes; read-out: IRAK-4 activity inhibition IC50
OBSERVATION_TYPE: IC50

{"columns": ["MOLECULE", "SYSTEM", "READOUT_VALUE"],
 "data": [
  ["OC1CCCC(Nc2ncnc3sc4c(c23)CCCC4)C1 (centres unmarked)", "IRAK4 (Homo sapiens, UniProt Q9NWZ3)", "< 5 µM"]
]}

Report IC50 for CCC1CCc2c(sc3ncnc(N[C@H]4CC[C@H](N(C)C)CC4)c23)C1 (some centres unmarked) < 5 µM

Report IC50 for C[C@@H](Nc1ncnc2sc3c(c12)CCC3)C(=O)O > 50 µM

Report IC50 for O=C(CN(CC(=O)N1CCCC1)[C@H]1CC[C@H](Nc2ncnc3sc4c(c23)CCC4)CC1)N1CCCC1 5 to 20 µM

Report IC50 for CC(C)NC(=O)CN(C)[C@H]1CC[C@H](Nc2ncnc3sc4c(c23)CCC4)CC1 < 5 µM

Report IC50 for CN(Cc1ccco1)[C@H]1CC[C@H](Nc2ncnc3sc4c(c23)CCC4)CC1 < 5 µM

Report IC50 for c1nc(N[C@H]2CC[C@@H](N3CCC3)CC2)c2c3c(sc2n1)CCC3 20 to 50 µM

Report IC50 for CN(CC(=O)N1CCCC1)[C@H]1CC[C@H](Oc2ncnc3sc4c(c23)CCC4)CC1 < 5 µM

* * *

# SYSTEM: IRAK4 (Homo sapiens, UniProt Q9NWZ3)
# Construct: purchased CARNA Bioscience 09-145
# Sequence (Q9NWZ3 1-460): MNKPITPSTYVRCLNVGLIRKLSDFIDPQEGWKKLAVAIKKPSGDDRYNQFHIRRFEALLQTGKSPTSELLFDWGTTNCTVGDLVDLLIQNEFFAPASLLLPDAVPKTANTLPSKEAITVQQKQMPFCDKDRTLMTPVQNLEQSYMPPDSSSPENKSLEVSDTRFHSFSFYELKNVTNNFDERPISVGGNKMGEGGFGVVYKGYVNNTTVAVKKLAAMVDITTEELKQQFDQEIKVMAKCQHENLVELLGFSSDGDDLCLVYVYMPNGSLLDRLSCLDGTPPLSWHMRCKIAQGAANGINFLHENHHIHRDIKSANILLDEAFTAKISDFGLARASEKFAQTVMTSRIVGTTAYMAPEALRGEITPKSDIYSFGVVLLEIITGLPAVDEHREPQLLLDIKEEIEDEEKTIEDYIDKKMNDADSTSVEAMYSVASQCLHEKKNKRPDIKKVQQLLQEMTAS
# PROTOCOL_DETAILS: IRAK-4 activity inhibition assay (Caliper, Peptide 8, 37 μM ATP)
# Assay type: biochemical
# CONDITION_SET: 3.5 nM IRAK4, 1.5 μM Peptide 8, 37 μM ATP, 28° C. 40 minutes; read-out: IRAK-4 activity inhibition IC50
pIC50: −log10 of the molar value.
The molecules listed here are annotated with their pIC50.

Worked set:
{"columns": ["MOLECULE", "pIC50"],
 "data": [
  ["c1nc(N[C@H]2CC[C@H](N3CCCCC3)CC2)c2c3c(sc2n1)CCC3", "> 5.30"],
  ["CC(C)N[C@H]1CC[C@H](Nc2ncnc3sc4c(c23)CCC4)CC1", "> 5.30"],
  ["Cc1sc2ncnc(N3CCC(C(=O)NCc4ccc(S(N)(=O)=O)cc4)CC3)c2c1C", "4.70 to 5.30"],
  ["CCN[C@H]1CC[C@H](Nc2ncnc3sc4c(c23)CCC4)CC1 [Compound I-70]", "> 5.30"]
]}

Tell me its pIC50 on IRAK4 (Homo sapiens, UniProt Q9NWZ3): CN(CC(N)=O)[C@H]1CC[C@H](Nc2ncnc3sc4c(c23)CCC4)CC1 > 5.30

Tell me its pIC50 on IRAK4 (Homo sapiens, UniProt Q9NWZ3): CC1CCc2c(sc3ncnc(N4CCC(C(N)=O)CC4)c23)C1 (centres unmarked) 4.70 to 5.30

Tell me its pIC50 on IRAK4 (Homo sapiens, UniProt Q9NWZ3): CCOc1ccccc1N1CCN(c2ncnc3sc4c(c23)CCC4)CC1 < 4.30

Tell me its pIC50 on IRAK4 (Homo sapiens, UniProt Q9NWZ3): CN(C1CCOCC1)[C@H]1CC[C@H](Nc2ncnc3sc4c(c23)CCC4)CC1 > 5.30

Provenance of the data: patent US9340554B2
